System: murine neural precursor cells (neurosphere cultures)
Assay: HTS of LOPAC library against secondary neurosphere cultures, MTT proliferation assay at 3 μM, day 7 (z score, P value)
Assay type: cell-based, mouse
Conditions: 168 h, 3 µM
Structures can show the parent of a compound that is named as a salt.
Recorded Z score, one value per entry.
Give the figure only, with no unit attached.

compound	Z score
CCCCCCCC/C=C\CCCCCCCC(=O)NCCc1ccc(O)c(O)c1	0.463
CC[N+](CC)(CC)CCOc1ccc(/C=C/c2ccccc2)cc1	−10.660

Z score lookup needed for CC(N)(Cc1ccc(O)c(O)c1)C(=O)O (racemic) , thanks.
−1.894

Z score lookup needed for `Cn1c(=O)c2[nH]c(-c3ccccc3)nc2n(C)c1=O` , thanks.
0.752

Z score lookup needed for `O=C(O)c1cc(O)cc(C(=O)O)n1` , thanks.
0.726

Z score lookup needed for CCOC(=O)c1cnc2c(cnn2CC)c1NN=C(C)C [Etazolate hydrochloride] , thanks.
−0.247

Z score lookup needed for `Clc1ccc2c(c1)C(N1CCNCC1)=Nc1ccccc1O2` , thanks.
−1.041

Z score lookup needed for Oc1ccc(Cn2ccnc2S)cc1 [1-(4-Hydroxybenzyl)imidazole-2-thiol] , thanks.
0.763
